- assay.remarks: HILIC, Waters ACQUITY UPLC BEH Amide, 100 × 2.1 mm, 1.7 µm; A: water + 0.125% formic acid + 10 mM ammonium formate; B: 5% water + 95% acetonitrile + 0.125% formic acid + 10 mM ammonium formate; gradient (min/%B) 0/100 2/100 7.7/70 9.5/40 10.25/30 12.75/100 17/100
- protocol.conditions: stereoisomer not certain
quantity: LC retention time (min)

1) CC(C=CC1(O)C(C)=CC(=O)CC1(C)C)=CC(=O)O (stereo not given) [Abscisic acid] ... 1.33
2) NC(N)=NCCCC(NC(=O)C(N)CCC(=O)O)C(=O)O (stereo not given) [Glu-Arg] ... 9.9
3) COc1ccc(C(=O)O)cc1 [P-Anisic acid] ... 1.3

P: Cc1ncc([N+](=O)[O-])n1CC(C)O (stereo not given) [Secnidazole]
Q: NC(CCC(=O)NC(CS)C(=O)O)C(=O)O (stereo not given) [gamma-Glutamyl-cysteine]
Exercise: When the recorded LC retention time values are compared, which is smaller: that of P or that of Q ? I would appreciate it if you answered with the label of your choice.
Key: P
(P: 1.12 min, Q: 8.98 min)

###

- assay.remarks: HILIC, Waters ACQUITY UPLC BEH Amide, 100 × 2.1 mm, 1.7 µm; A: water + 0.125% formic acid + 10 mM ammonium formate; B: 5% water + 95% acetonitrile + 0.125% formic acid + 10 mM ammonium formate; gradient (min/%B) 0/100 2/100 7.7/70 9.5/40 10.25/30 12.75/100 17/100
- protocol.conditions: stereoisomer not certain
quantity: LC retention time (min)

Past entries and their recorded results:
1) CC12CCC(=O)C=C1CCC1C2C(O)CC2(C)C1CCC2(O)C(=O)CO (centres undefined) [Hydrocortisone] ... 2.56
2) COc1cc(C2c3cc4c(cc3C(OC3OC5COC(C)OC5C(O)C3O)C3COC(=O)C23)OCO4)cc(OC)c1O (centres undefined) [Etoposide] ... 1.3
3) OCC1OC(Oc2cc(O)cc(C=Cc3ccc(O)cc3)c2)C(O)C(O)C1O (stereo not drawn) [trans-Piceid] ... 4.64
4) O=P(O)(O)OCC(O)C(O)C(O)C(O)CO (centres undefined) [Sorbitol-6-phosphate] ... 9.75
5) CC(=O)OCC=C(C)CCC=C(C)C [Nerylacetate] ... 0.99

1: CC(C=CC1=C(C)CCCC1(C)C)=CC=CC(C)=CC(=O)O
2: O=c1ccn(C2OC(CO)C(O)C2O)c(=O)[nH]1 (centres undefined)
3: CC(C(O)c1ccc(O)cc1)N1CCC(Cc2ccccc2)CC1 (centres undefined)
4: Cc1cn(C2OC(CO)C(O)C2O)c(=S)[nH]c1=O (centres undefined)
Exercise: Sort ascending by LC retention time. As an answer, provide the labels arranged in the order called for.
Key: 1, 4, 3, 2
(1: 1.11 min, 4: 1.98 min, 3: 3.17 min, 2: 4.72 min)

A: O=C(O)Cc1cccc(O)c1 [3-Hydroxyphenylacetic acid]
B: CNC(=C[N+](=O)[O-])NCCSCc1csc(CN(C)C)n1
C: COC1C=COC2(C)Oc3c(C)c(O)c4c(O)c(c5c(c4c3C2=O)=NC2(CCN(CC(C)C)CC2)N=5)NC(=O)C(C)=CC=CC(C)C(O)C(C)C(O)C(C)C(OC(C)=O)C1C (centres undefined)
D: CC(C)(C#N)c1cc(Cn2cncn2)cc(C(C)(C)C#N)c1
Exercise: Sort ascending by LC retention time. As an answer, provide the labels arranged in the order called for.
Key: D, A, C, B

I: Cn1nnc2c(C(N)=O)ncn2c1=O [Temozolomide]
II: NCCC(=O)NC(Cc1cnc[nH]1)C(=O)O (centres undefined)
Exercise: Just curious, which one has the larger LC retention time reading, I or II ? I would appreciate it if you answered with the label of your choice.
Key: II

I: CC(C)c1nc(CN(C)C(=O)NC(C(=O)NC(Cc2ccccc2)CC(O)C(Cc2ccccc2)NC(=O)OCc2cncs2)C(C)C)cs1 (centres undefined)
II: Nc1ccnc(=O)[nH]1
Exercise: Just curious, which one has the larger LC retention time reading, I or II ? I would appreciate it if you answered with the label of your choice.
Key: II
